Source: ChEMBL document CHEMBL3414434

target: 2-heptyl-4(1H)-quinolone synthase PqsD (Pseudomonas aeruginosa, UniProt A0A0C7ACN7); assay: Inhibition of recombinant His6-tagged Pseudomonas aeruginosa PqsD expressed in Escherichia coli BL21 (deltaDE3) using anthraniloyl-CoA/beta-ketodecanoic acid as substrate assessed as HHQ formation preincubated for 10 mins followed by substrate addition by HPLC/MS-MS analysis
pIC50: −log10 of the molar value.
Outcome measure: pIC50

COc1ccc(-c2cc(NC(=O)N[C@@H](CO)C(=O)O)c(C(=O)O)s2)cc1    4.72
O=C(Nc1cc(-c2cccc(-c3ccc(CO)cc3)c2)sc1C(=O)O)N[C@@H](Cc1ccccc1)C(=O)O    4.71
COc1ccc(-c2cc(NC(=O)N[C@@H](CCC(=O)O)C(=O)O)c(C(=O)O)s2)cc1    4.52
COc1ccc(-c2cc(NC(=O)N[C@@H](CC(N)=O)C(=O)O)c(C(=O)O)s2)cc1    4.88
COc1ccc(-c2cc(NC(=O)N[C@@H](Cc3ccccc3)C(=O)O)c(C(=O)O)s2)cc1    6.30

====

Target: 2-heptyl-4(1H)-quinolone synthase PqsD (Pseudomonas aeruginosa)
Sequence (A0A0C7ACN7 whole entry): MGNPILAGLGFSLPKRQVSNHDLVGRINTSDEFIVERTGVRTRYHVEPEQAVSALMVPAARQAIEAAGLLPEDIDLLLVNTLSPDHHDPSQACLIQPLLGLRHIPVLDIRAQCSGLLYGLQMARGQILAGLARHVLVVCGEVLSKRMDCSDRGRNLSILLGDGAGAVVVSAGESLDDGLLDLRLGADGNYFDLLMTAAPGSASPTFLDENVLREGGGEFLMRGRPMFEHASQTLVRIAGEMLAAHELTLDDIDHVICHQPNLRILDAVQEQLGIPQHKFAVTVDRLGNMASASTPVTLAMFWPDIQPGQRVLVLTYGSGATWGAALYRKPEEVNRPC
Test: Inhibition of recombinant His6-tagged Pseudomonas aeruginosa PqsD expressed in Escherichia coli BL21 (deltaDE3) using anthraniloyl-CoA/beta-ketodecanoic acid as substrate assessed as HHQ formation preincubated for 10 mins followed by substrate addition by HPLC/MS-MS analysis
Here, each record is paired with measured log10 of IC50 data.
Outcome measure: log10 of IC50 (log10 of the value in nM)

COc1ccc(-c2cc(NC(=O)N[C@@H](Cc3ccccc3)C(=O)O)c(C(=O)O)s2)c(C)c1    3.88
O=C(Nc1cc(-c2ccc(-c3ccccc3)cc2)sc1C(=O)O)N[C@@H](Cc1ccccc1)C(=O)O    3.43
O=C(Nc1cc(-c2ccc(O)cc2)sc1C(=O)O)N[C@@H](Cc1ccccc1)C(=O)O    4.33
O=[N+]([O-])c1ccccc1C(O)c1ccccc1 (stereo not given)    3.00
O=C(Nc1cc(-c2ccc(-c3ccc(C(O)c4ccccc4[N+](=O)[O-])cc3)cc2)sc1C(=O)O)N[C@@H](Cc1ccccc1)C(=O)O (stereo not given in full)    2.56
